Recorded Activity by entry
# tested.on: UniProt P50637
# Sequence (P50637 whole entry, looked up): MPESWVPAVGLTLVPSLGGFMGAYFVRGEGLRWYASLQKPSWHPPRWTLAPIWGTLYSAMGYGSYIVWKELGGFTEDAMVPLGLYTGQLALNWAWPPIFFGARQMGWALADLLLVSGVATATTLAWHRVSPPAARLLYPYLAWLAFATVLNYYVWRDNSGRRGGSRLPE
# assay.method.text: Inhibition of TSPO in mouse HT22 cells assessed as reduction in amyloid beta (1 to 42) (unknown origin) induced mitochondrial permeability transition pore formation by measuring increase in green to red fluorescence ratio at 5 uM pretreated for 10 mins followed by amyloid beta (1 to 42) stimulation and measured at 1 hr interval for 3 hrs by JC-1 dye based fluorescence assay relative to control
# Type: cell-based
# Design: scale not given: the % may be the effect or the level left
experimental.readout: Activity (%)

item_smiles=CCc1nnc(SCC(=O)Nc2ccccc2)c2cc3sc(C)cc3n12 measured_result=61
item_smiles=CCc1nn(CC(=O)N(C)C)c(=O)c2cc3sccc3n12 measured_result=12
item_smiles=CCc1nn(CC(=O)N(C)c2ccccc2)c(=O)c2cc3sccc3n12 measured_result=50
item_smiles=CCc1nnc(SCC(=O)N2CCN(c3ccccc3)CC2)c2cc3sc(Cl)cc3n12 measured_result=50
item_smiles=COc1ccc(NC(=O)CSc2nnc(C)n3c2cc2sccc23)cc1OC measured_result=55
item_smiles=Cc1cc2c(cc3c(=O)n(CC(=O)N(C)C)nc(C)n32)s1 measured_result=17
item_smiles=Cn1c(=O)oc2cc(NS(=O)(=O)Cc3ccco3)ccc21 measured_result=41
item_smiles=CCc1nnc(SCC(=O)Nc2ccc(OC)c(OC)c2)c2cc3sc(C)cc3n12 measured_result=62
item_smiles=Cc1nnc(SCC(=O)N2CCN(c3ccccc3)CC2)c2cc3sccc3n12 measured_result=59
item_smiles=O=C(Cc1coc2ccc3ccccc3c12)NCc1ccco1 measured_result=85

---

# tested.on: Translocator protein (Mus musculus)
# assay.method.text: Inhibition of TSPO in mouse HT22 cells assessed as recovery of ATP production at 5 uM preincubated for 10 mins followed by amyloid beta (1 to 42) stimulation and measured after 7 hrs by luciferase based assay relative to control
# Type: cell-based
# Parameters: scale not given: the % may be the effect or the level left
experimental.readout: Activity (%)

compound=CCc1nnc(SCC(=O)N(CC)Cc2ccccc2)c2cc3sc(C)cc3n12 measured_result=25
compound=Cc1nnc(SCC(=O)N2CCN(c3ccccc3)CC2)c2cc3sccc3n12 measured_result=0
compound=CCc1nnc(SCC(=O)N2CCN(c3ccccc3)CC2)c2cc3sc(C)cc3n12 measured_result=41
compound=CCc1nn(CC(=O)N2CCN(c3ccccc3)CC2)c(=O)c2cc3sccc3n12 measured_result=9
compound=Cc1cc2c(cc3c(=O)n(CC(=O)N(C)c4ccccc4)nc(C)n32)s1 measured_result=17
compound="COc1ccccc1C1NC(=S)NC(C)=C1C(=O)OCc1ccccc1 (configuration not stated)" measured_result=0
compound=Cn1c(=O)oc2cc(NS(=O)(=O)Cc3ccco3)ccc21 measured_result=14
compound=CCc1nnc(SCC(=O)N(C)c2ccccc2)c2cc3sccc3n12 measured_result=8
compound=CCc1nn(CC(=O)N(C)c2ccccc2)c(=O)c2cc3sccc3n12 measured_result=-9
compound=O=C(Cc1coc2ccc3ccccc3c12)NCc1ccco1 measured_result=-3
compound=COc1cc(-c2nnc(SCc3c(F)cccc3Cl)o2)cc(OC)c1OC measured_result=-3
compound=Cc1cc2c(cc3c(SCC(=O)NCc4ccccc4)nnc(C)n32)s1 measured_result=-50
compound=CCc1nnc(SCC(=O)N(C)c2ccccc2)c2cc3sc(Cl)cc3n12 measured_result=22
compound=CCc1nnc(SCC(=O)Nc2ccc(OC)c(OC)c2)c2cc3sc(C)cc3n12 measured_result=18
compound=COc1ccc(NC(=O)Cn2nc(C)n3c(cc4sc(C)cc43)c2=O)cc1OC measured_result=-8
compound=C=CCN1C(=O)CN=C(c2ccccc2)c2c1sc(C)c2C measured_result=-2
compound=CCc1nnc(SCC(=O)Nc2ccccc2)c2cc3sc(C)cc3n12 measured_result=22
compound=CCc1nnc(SCC(=O)N(C)c2ccccc2)c2cc3sc(C)cc3n12 measured_result=44
compound=CCc1nnc(SCC(=O)Nc2ccc(OC)c(OC)c2)c2cc3sc(Cl)cc3n12 measured_result=7
compound=CCc1nn(CC(=O)N(CC)Cc2ccccc2)c(=O)c2cc3sccc3n12 measured_result=-11
compound=CCN(Cc1ccccc1)C(=O)CSc1nnc(C)n2c1cc1sc(C)cc12 measured_result=26
compound=Cc1cc2c(cc3c(SCC(=O)N(C)c4ccccc4)nnc(C)n32)s1 measured_result=33
compound=CCc1nnc(SCC(=O)NCc2ccccc2)c2cc3sc(C)cc3n12 measured_result=-3
compound=CCc1nnc(SCC(=O)Nc2ccccc2)c2cc3sc(Cl)cc3n12 measured_result=4
compound=Cc1nnc(SCC(=O)NCc2ccccc2)c2cc3sccc3n12 measured_result=6
compound=COC(=O)CN(c1ccc(C(C)C)cc1)S(=O)(=O)c1ccc(C)cc1 measured_result=-1
compound=Cc1nnc(SCC(=O)N(C)c2ccccc2)c2cc3sccc3n12 measured_result=25
compound=CCc1nnc(SCC(=O)Nc2ccc(OC)c(OC)c2)c2cc3sccc3n12 measured_result=14
compound=Cc1nnc(SCC(=O)Nc2ccccc2)c2cc3sccc3n12 measured_result=5
compound=Cc1cc2c(cc3c(SCC(=O)Nc4ccccc4)nnc(C)n32)s1 measured_result=19
compound=CCc1nn(CC(=O)Nc2ccc(OC)c(OC)c2)c(=O)c2cc3sccc3n12 measured_result=-17
compound=CCc1nnc(SCC(=O)NCc2ccccc2)c2cc3sccc3n12 measured_result=-15
compound=CCc1nnc(SCC(=O)Nc2ccccc2)c2cc3sccc3n12 measured_result=-3
compound=CCN(Cc1ccccc1)C(=O)Cn1nc(C)n2c(cc3sc(C)cc32)c1=O measured_result=9
compound=Cc1cc2c(cc3c(=O)n(CC(=O)N(C)C)nc(C)n32)s1 measured_result=0
compound=CCc1nn(CC(=O)N(C)C)c(=O)c2cc3sccc3n12 measured_result=-3
compound=CCc1nnc(SCC(=O)N2CCN(c3ccccc3)CC2)c2cc3sccc3n12 measured_result=-4
compound=CN1C(=O)CN=C(c2ccc(Cl)cc2)c2cc(Cl)ccc21 measured_result=9
compound=CCN(Cc1ccccc1)C(=O)CSc1nnc(C)n2c1cc1sccc12 measured_result=8
compound=CCc1nnc(SCC(=O)N2CCN(c3ccccc3)CC2)c2cc3sc(Cl)cc3n12 measured_result=-2
compound="O=S(=O)(c1ccccc1Cl)N1CCCC1c1cccs1 (configuration not stated)" measured_result=-61
compound=COc1ccc(NC(=O)CSc2nnc(C)n3c2cc2sccc23)cc1OC measured_result=0
